System under test: Recombinant human Factor IX (rhFIX, Genetics Institute) (human, UniProt P00740 47-461)
Sequence (P00740 47-461 limits assumed): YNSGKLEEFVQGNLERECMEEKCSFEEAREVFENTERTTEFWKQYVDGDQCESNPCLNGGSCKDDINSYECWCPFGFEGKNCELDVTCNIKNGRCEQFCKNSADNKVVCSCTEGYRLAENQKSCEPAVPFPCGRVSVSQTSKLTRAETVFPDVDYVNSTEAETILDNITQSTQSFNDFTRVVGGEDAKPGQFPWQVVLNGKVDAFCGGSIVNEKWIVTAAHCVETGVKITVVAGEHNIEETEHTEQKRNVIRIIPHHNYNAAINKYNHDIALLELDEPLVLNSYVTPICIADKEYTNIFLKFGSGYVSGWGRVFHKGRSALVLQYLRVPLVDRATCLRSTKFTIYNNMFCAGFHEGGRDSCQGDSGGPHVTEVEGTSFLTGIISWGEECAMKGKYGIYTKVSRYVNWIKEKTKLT
Protocol text: SPR (BIAcore), antibody bound to immobilized protein A, Factor IX in solution
Quantity name: kon (M⁻¹ s⁻¹)

>  <Binder>
humanized anti-human Factor IX monoclonal antibody SB 257731 (antibody, human IgG1, V domains shown, Human IgG1 and kappa constant regions from the vectors; also called F9HZHC 1-1 / F9HZLC 1-3) VH: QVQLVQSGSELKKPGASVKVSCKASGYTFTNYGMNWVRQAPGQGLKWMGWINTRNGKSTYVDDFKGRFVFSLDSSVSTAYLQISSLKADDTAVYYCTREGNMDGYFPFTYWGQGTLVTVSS VL: QIVLTQSPATLSLSPGERATLSCRASSSVNYMHWYQQRPGQAPKPWIYATSNLASGVPARFSGSGSGTDYTLTISSLEPEDFAVYYCQQWSINPRTFGGGTKVEIK

>  <Value measured>
920000

$$$$
